Reported values of pIC50 for individual entries
# target desc: T1, human GLP-1 receptor (human, UniProt P43220 24-463)
# T1 construct: whole, on cells; Used as purified plasma membranes of the stably transfected BHK cell line, not as intact cells; also called hGLP-1
# method notes: SPA, displacement of 125I-GLP-1(7-36)NH2 from hGLP-1R BHK membranes, low HSA (0.001%)
Numbered stars: 1 amine (or outer) side, 2 acyl side, 3 side chain; on linkers, the order of the positions; unused ones are H or OH. Side chains are listed from the residue outwards. Ends that are not written are not given here. * marks the point of attachment. Decanoyl(10-(4-HOOC-PhO)) = O=C(O)c1ccc(OCCCCCCCCCC(=O)*)cc1; γGlu = O=C(O)[C@H](CCC(=O)[*:2])N[*:1]; C14 diacid = O=C(O)CCCCCCCCCCCCC(=O)*; AEEA = NCCOCCOCC(=O)O
Formally, pIC50 is defined as -log10 of the concentration c, with c in mol/L.

[[record]]
binder = "HAEGTFTSDVSSYLEGQAAHK([AEEA-AEEA-γGlu-Decanoyl(10-(4-HOOC-PhO))])FIEWLVRGK([AEEA-AEEA-γGlu-Decanoyl(10-(4-HOOC-PhO))])GE (also called 10)"
meas_value = 8.19


// below: pIC50 requested for another binder
Task: Could you share which pIC50 value was measured for HAEGTFTSDVSSYLEEQK([AEEA-AEEA-γGlu-C14 diacid])VRK([AEEA-AEEA-γGlu-C14 diacid])FIAWLVG (also called 27) ?
Output: 7.99
